- system tested: Aromatase (Homo sapiens, UniProt P11511)
- Sequence (P11511 whole entry): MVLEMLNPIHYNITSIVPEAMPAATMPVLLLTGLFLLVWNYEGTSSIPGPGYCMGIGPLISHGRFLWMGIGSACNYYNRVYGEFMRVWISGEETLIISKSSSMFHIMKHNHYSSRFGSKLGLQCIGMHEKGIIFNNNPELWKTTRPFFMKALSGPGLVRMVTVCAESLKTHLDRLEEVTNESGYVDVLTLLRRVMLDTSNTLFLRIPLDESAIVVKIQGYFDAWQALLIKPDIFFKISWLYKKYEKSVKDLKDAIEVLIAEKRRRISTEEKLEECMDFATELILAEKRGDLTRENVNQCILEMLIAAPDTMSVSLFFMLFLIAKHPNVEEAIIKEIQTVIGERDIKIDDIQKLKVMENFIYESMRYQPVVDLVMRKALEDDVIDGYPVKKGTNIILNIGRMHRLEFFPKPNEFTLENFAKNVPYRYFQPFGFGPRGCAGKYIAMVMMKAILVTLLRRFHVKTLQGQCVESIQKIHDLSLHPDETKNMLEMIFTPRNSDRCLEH
- protocol details: Binding affinity for aromatase cytochrome P45019A1 by analysis of Dixon plot
pKi: −log10 of the molar value.

molecule | pKi
CC12CCC3C(CC=C4CCCCC43CO)C1CCC2O (centres undefined) | 5.01
CC12CCC3C4CCC(=O)C=C4CCC3C1CCC2=O (centres undefined) | 6.85
CC12CCC3C(CC=C4CCCCC43C=O)C1CCC2=O (centres undefined) | 5.85
C[C@]12CCC(=O)C=C1CC[C@@H]1[C@@H]2CC[C@]2(C)C(=O)CC[C@@H]12 | 7.70

---

- system tested: Aromatase (Homo sapiens)
- protocol details: The binding affinity was determined on Cytochrome P450 19A1 by analysis of Dixon plot

compound | Ki (nM)
CC12CCC3C4CCCCC4=CC(=O)C3C1CCC2=O (stereo unspecified) | 2400
CC12CCC3C(C(=O)C=C4CCCCC43C)C1CCC2=O (stereo unspecified) | 250
CC12CCCCC1=CC(=O)C1C2CCC2(C)C(O)CCC12 (stereo unspecified) | 5500
CC12CCC3C(CC=C4C=CCCC43C)C1CCC2=O (stereo unspecified) | 58
C[C@]12CC[C@H]3[C@@H](CC=C4CCCC[C@@]43CO)[C@@H]1CCC2=O | 1000
CC12CCCCC1=CCC1C2CCC2(C)C(O)CCC12 (stereo unspecified) | 3000
CC12CCC=CC1=CCC1C2CCC2(C)C1CC[C@@H]2O (stereo partly specified) | 2000
C[C@]12CCCCC1=CC[C@@H]1[C@@H]2CC[C@]2(C)C(=O)CC[C@@H]12 | 120
CC12CCC3C(CC=C4CCCCC43C)C1C[C@@H](Br)C2=O (stereo partly specified) | 11000
CC12CCC=CC1=CC(=O)C1C2CCC2(C)C1CC[C@@H]2O (stereo partly specified) | 5300
CC12CCC3C4CCC=CC4=CC(=O)C3C1CCC2=O (stereo unspecified) | 3000

The origin of these recorded values is ChEMBL document CHEMBL1127575.
